- Test system: VCAM-1
- test_summary: In Vitro VCAM-1 Assay (TNF-α stimulated endothelial cells, cell-surface ELISA)
- Format: cell-based
- study_conditions: Endothelial cell; primary human aortic (HAEC) or pulmonary (HPAEC) endothelial cells, TNF-α 1 ng/ml, approximately 16 hours, ELISA OD 450 nm
- Description: Cell Culture and compound dosing: Cultured primary human aortic (HAEC) or pulmonary (HPAEC) endothelial cells were obtained from Clonetics, Inc., and were used below passage 9. Cells were seeded in 96 well plates such that they would reach 90–95% confluency by the following day. On the following day the cells were stimulated with TNF-α (1 ng/ml) in the presence or absence of compounds dissolved in DMSO such that the final concentration of DMSO is 0.25% or less. […]
observable: IC50

[[record]]
molecule = "COc1cc(OC)c(-c2cc3ccccc3n2C)cc1/C=C/C(=O)c1ccc(S(=O)(=O)NO[Si](C)(C)C(C)(C)C)cc1 [Example 33]"
result = "> 10 µM"

